For each record, write down the corresponding melting temperature.
Test system: HeLa Kyoto;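 note: HeLa Kyoto cells synchronized by double thymidine or nocodazole block, proteins quantified by TMT10plex mass spectrometry, three independent biological replicates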
METHOD DESCRIPTION: melting temperature (median over replicates), in situ; higher = more thermally stable
CONDITION CONTEXT: cell cycle stage: G1/S
Dear colleague, please return just the value in °C, with no unit written.

Inquiry: Dear colleague, I am looking for the recorded melting temperature of the following sequence: MKPDETPMFDPSLLKEVDWSQNTATFSPAISPTHPGEGLVLRPLCTADLNRGFFKVLGQLTETGVVSPEQFMKSFEHMKKSGDYYVTVVEDVTLGQIVATATLIIEHKFIHSCAKRGRVEDVVVSDECRGKQLGKLLLSTLTLLSKKLNCYKITLECLPQNVGFYKKFGYTVSEENYMCRRFLK [GNPNAT1]
Reply text: 56.2

Inquiry: Dear colleague, I am looking for the recorded melting temperature of the following sequence: MAATLLAARGAGPAPAWGPEAFTPDWESREVSTGTTIMAVQFDGGVVLGADSRTTTGSYIANRVTDKLTPIHDRIFCCRSGSAADTQAVADAVTYQLGFHSIELNEPPLVHTAASLFKEMCYRYREDLMAGIIIAGWDPQEGGQVYSVPMGGMMVRQSFAIGGSGSSYIYGYVDATYREGMTKEECLQFTANALALAMERDGSSGGVIRLAAIAESGVERQVLLGDQIPKFAVATLPPA [PSMB6]
Reply text: 59

Inquiry: Dear colleague, I am looking for the recorded melting temperature of the following sequence: MENFRKVRSEEAPAGCGAEGGGPGSGPFADLAPGAVHMRVKEGSKIRNLMAFATASMAQPATRAIVFSGCGRATTKTVTCAEILKRRLAGLHQVTRLRYRSVREVWQSLPPGPTQGQTPGEPAASLSVLKNVPGLAILLSKDALDPRQPGYQPPNPHPGPSSPPAAPASKRSLGEPAAGEGSAKRSQPEPGVADEDQTA [RPP25]
Reply text: 54.5
